- Target System: VcSialidase (Vibrio cholerae serotype O1, UniProt P0C6E9)
- Sequence (P0C6E9 25-781): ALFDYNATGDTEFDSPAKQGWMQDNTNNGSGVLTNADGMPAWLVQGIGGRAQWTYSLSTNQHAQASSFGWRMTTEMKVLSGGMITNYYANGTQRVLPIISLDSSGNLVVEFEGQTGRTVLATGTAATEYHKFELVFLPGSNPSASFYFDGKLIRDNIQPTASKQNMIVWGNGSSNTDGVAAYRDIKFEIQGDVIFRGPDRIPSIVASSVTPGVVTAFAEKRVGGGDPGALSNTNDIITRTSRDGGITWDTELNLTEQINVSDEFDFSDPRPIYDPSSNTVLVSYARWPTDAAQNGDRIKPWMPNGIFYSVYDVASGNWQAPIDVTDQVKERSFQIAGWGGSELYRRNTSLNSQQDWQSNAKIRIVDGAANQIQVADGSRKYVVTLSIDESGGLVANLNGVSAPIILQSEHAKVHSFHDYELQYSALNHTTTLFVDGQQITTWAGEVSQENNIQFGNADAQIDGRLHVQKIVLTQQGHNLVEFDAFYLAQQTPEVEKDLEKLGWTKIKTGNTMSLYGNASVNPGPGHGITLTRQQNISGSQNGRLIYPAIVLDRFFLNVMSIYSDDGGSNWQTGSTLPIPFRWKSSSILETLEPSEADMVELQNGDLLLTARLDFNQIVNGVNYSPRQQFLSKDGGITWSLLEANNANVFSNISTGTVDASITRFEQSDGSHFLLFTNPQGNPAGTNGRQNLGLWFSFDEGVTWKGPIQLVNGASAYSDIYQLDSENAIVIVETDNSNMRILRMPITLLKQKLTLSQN
- Assay: Sialidase inhibition assay (Example 7)
- Format: biochemical
- Condition Set: pH 5.5, read-out: Percentage inhibition (%) against VcSialidase
Reported Metric: inhibition at 1000 µM (%)
Field format: number, assumed %, no unit text.

I have this compound here, N[C@H]1[C@H]2O[C@@](C(=O)O)(C[C@@H]1O)O[C@@H]2[C@H](O)CO [2-3] , and I need its recorded inhibition at 1000 µM.
1.3

I have this compound here, CC(=O)N[C@H]1[C@H]([C@H](O)[C@H](O)CO)OC(C(=O)O)=C[C@@H]1O [compound 6, reference compound] , and I need its recorded inhibition at 1000 µM.
98.8

I have this compound here, CC(=O)N[C@H]1[C@H]2O[C@@](C(=O)O)(C[C@@H]1O)O[C@@H]2[C@H](O)CO [2-1] , and I need its recorded inhibition at 1000 µM.
22.7

I have this compound here, O=C(N[C@H]1[C@H]2O[C@@](C(=O)O)(C[C@@H]1O)O[C@@H]2[C@H](O)CO)C(F)(F)F [2-2] , and I need its recorded inhibition at 1000 µM.
62.1

I have this compound here, O=C(O)[C@@]12C[C@@H](O)[C@@H](NC3CCCCC3)C(O1)[C@@H]([C@H](O)CO)O2 [2-4] , and I need its recorded inhibition at 1000 µM.
1.2

====

- Target System: SpNanC (Streptococcus pneumoniae)
- Sequence (A0A0H2UQE4 entry or part of it): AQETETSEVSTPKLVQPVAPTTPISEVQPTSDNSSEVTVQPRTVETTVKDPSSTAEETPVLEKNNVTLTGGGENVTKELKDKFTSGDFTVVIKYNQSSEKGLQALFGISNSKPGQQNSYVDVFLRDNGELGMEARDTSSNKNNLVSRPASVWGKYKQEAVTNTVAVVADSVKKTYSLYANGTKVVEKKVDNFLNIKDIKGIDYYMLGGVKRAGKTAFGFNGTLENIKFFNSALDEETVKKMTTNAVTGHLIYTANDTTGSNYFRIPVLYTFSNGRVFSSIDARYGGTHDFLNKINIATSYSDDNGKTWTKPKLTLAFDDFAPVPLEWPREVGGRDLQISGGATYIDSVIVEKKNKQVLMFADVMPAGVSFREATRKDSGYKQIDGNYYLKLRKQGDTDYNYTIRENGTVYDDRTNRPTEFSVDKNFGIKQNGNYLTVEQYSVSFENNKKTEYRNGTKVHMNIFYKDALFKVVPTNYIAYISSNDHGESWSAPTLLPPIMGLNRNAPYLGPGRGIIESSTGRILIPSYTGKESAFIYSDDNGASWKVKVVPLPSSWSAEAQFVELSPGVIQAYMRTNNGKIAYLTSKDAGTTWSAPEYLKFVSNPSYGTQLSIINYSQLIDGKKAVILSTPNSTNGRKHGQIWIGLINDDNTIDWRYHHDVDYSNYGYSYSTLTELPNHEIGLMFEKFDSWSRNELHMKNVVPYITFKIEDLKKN
- Assay: Sialidase inhibition assay (Example 7)
- Condition Set: pH 6.5, read-out: Percentage inhibition (%) against SpNanC
Hi, to clarify the labels: 1 covers inhibition at 1000 µM from 4% upward, 0 covers anything below 4%.

Record "N[C@H]1[C@H]2O[C@@](C(=O)O)(C[C@@H]1O)O[C@@H]2[C@H](O)CO" ; criterion: inhibition at 1000 µM no lower than 4%. Met?
1

Record "O=C(N[C@H]1[C@H]2O[C@@](C(=O)O)(C[C@@H]1O)O[C@@H]2[C@H](O)CO)C(F)(F)F" ; criterion: inhibition at 1000 µM no lower than 4%. Met?
1

Record "CC(=O)N[C@H]1[C@H]2O[C@@](C(=O)O)(C[C@@H]1O)O[C@@H]2[C@H](O)CO" ; criterion: inhibition at 1000 µM no lower than 4%. Met?
0

Record CC(=O)N[C@H]1[C@H]([C@H](O)[C@H](O)CO)OC(C(=O)O)=C[C@@H]1O [compound 6, reference compound] ; criterion: inhibition at 1000 µM no lower than 4%. Met?
1

Record "O=C(O)[C@@]12C[C@@H](O)[C@@H](NC3CCCCC3)C(O1)[C@@H]([C@H](O)CO)O2" ; criterion: inhibition at 1000 µM no lower than 4%. Met?
1

====

- Target System: PmST1 (Pasteurella multocida, UniProt Q15KI8)
- Sequence (Q15KI8 entry or part of it): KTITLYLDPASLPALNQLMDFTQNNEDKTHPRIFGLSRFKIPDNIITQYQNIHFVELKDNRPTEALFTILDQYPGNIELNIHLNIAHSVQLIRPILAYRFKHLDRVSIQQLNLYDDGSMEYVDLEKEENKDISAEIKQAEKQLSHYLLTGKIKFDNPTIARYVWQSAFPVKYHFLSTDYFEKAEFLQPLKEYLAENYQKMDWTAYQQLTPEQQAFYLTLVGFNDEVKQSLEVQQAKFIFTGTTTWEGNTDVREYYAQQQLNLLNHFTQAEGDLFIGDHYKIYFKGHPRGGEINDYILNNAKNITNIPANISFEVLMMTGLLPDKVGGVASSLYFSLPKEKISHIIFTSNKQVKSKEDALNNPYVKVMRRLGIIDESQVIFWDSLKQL
- Assay: Sialidase inhibition assay (Example 4)
- Type: biochemical
- Condition Set: 0.1 mM of each inhibitor; substrate Neu5Acα2-3GalβpNP 0.3 mM; pH 5.5; read-out: Percentage inhibition (%) against PmST1
Hi, to clarify the labels: True covers inhibition at 100 µM from 8% upward, False covers anything below 8%.

Record CC(=O)N[C@@H]1C(O)C=C(C(=O)O)OC1C[C@H](O)CO (stereo partly shown) ; criterion: inhibition at 100 µM no lower than 8%. Met?
True

Record CC(=O)N[C@H]1[C@H]([C@H](O)[C@H](O)CO)OC(C(=O)O)=C[C@@H]1O [compound 6, reference compound] ; criterion: inhibition at 100 µM no lower than 8%. Met?
False

Record CC(=O)N[C@@H]1C(O)C=C(C(=O)O)OC1[C@H](O)[C@H](O)CNC(=O)C1CC1 (stereo partly shown) ; criterion: inhibition at 100 µM no lower than 8%. Met?
False

Record O=C(CO)N[C@@H]1C(O)C=C(C(=O)O)OC1[C@H](O)[C@H](O)CO (stereo partly shown) ; criterion: inhibition at 100 µM no lower than 8%. Met?
False

Record "CC(=O)NC[C@@H](O)[C@@H](O)[C@@H]1OC(C(=O)O)=C[C@H](O)[C@H]1NC(C)=O" ; criterion: inhibition at 100 µM no lower than 8%. Met?
True
